- TESTED_ON: Full length Human HDAC6 (Homo sapiens, UniProt Q9UBN7)
- Construct: Full length Human HDAC6; FLAG (C); host or cells: baculovirus expression system
- PROCEDURE_SUMMARY: Caliper endpoint assay for HDAC enzymatic activity (HDAC6)
- Format: biochemical
- MEASUREMENT_CONDITIONS: ratio of HDAC8 IC50/HDAC6 IC50
ENDPOINT_LABEL: Selectivity (6 v 8)

Worked examples, 4 compounds total:
1) O=C(NO)c1cc(F)c2c(c1)CCN(C1CC3(CCOC3)C1)C2 (single isomer, unassigned) [Compound 189]
IV (IV: >100-1000)
2) CC[C@@H]1Cc2c(F)cc(C(=O)NO)cc2CN1C1CCCC1 (single isomer, unassigned) [Compound 580]
III (III: >10-100)
3) O=C(NO)c1cc(F)c2c(c1)CCN(C1CC3(CCNCC3)C1)C2 [Compound 197]
IV (IV: >100-1000)
4) O=C(NO)c1cc(F)c2c(c1)CN1CCC[C@H]1C2 [Compound 123]
III (III: >10-100)

Ask: Short answer please: Selectivity (6 v 8), Full length Human HDAC6 (Homo sapiens, UniProt Q9UBN7), entry CC[C@H]1Cc2c(F)cc(C(=O)NO)cc2CN1CC1CC2(CCCCC2)C1 (single isomer, unassigned) [Compound 522]
Reply: III (III: >10-100)

Ask: Entry O=C(NO)c1cc(F)c2c(c1)C[C@H]1CCCCN1C2 [Compound 94] , system Full length Human HDAC6 (Homo sapiens, UniProt Q9UBN7): what Selectivity (6 v 8) was measured?
Reply: III (III: >10-100)

Ask: Item O=C(NO)c1cc(F)c2c(c1)CCN(C1CCC13CCCC3)C2 (centres unmarked) [Compound 314] with Full length Human HDAC6 (Homo sapiens, UniProt Q9UBN7) - Selectivity (6 v 8)?
Reply: IV (IV: >100-1000)

---

- TESTED_ON: Full length Human HDAC6 (Homo sapiens, UniProt Q9UBN7)
- Construct: Full length Human HDAC6; FLAG (C); host or cells: baculovirus expression system
- PROCEDURE_SUMMARY: Caliper endpoint assay for HDAC enzymatic activity (HDAC6)
- Format: biochemical
- MEASUREMENT_CONDITIONS: ratio of HDAC8 IC50/HDAC6 IC50
ENDPOINT_LABEL: Selectivity (6 v 8)

Worked examples, 5 compounds total:
1) CC(=O)N1CC[C@H](N2CCc3cc(C(=O)NO)cc(F)c3C2)CC12CCC2 (single isomer, unassigned) [Compound 441]
IV (IV: >100-1000)
2) CC[C@H]1Cc2c(F)cc(C(=O)NO)cc2CN1C1CC2(CCCCC2)C1 (single isomer, unassigned) [Compound 233]
IV (IV: >100-1000)
3) O=C(NO)c1ccc2c(c1)C[C@H]1COCCN1C2 [Compound 132]
IV (IV: >100-1000)
4) CC[C@H]1Cc2c(F)cc(C(=O)NO)cc2CN1C1CCCCC1 (single isomer, unassigned) [Compound 583]
III (III: >10-100)
5) CC1(C)C[C@@H]2Cc3cc(C(=O)NO)cc(F)c3CN2C1 [Compound 126]
III (III: >10-100)

Ask: Give the measured Selectivity (6 v 8) of CC[C@@H]1Cc2c(F)cc(C(=O)NO)cc2CN1C1COC1 (single isomer, unassigned) [Compound 600] .
Reply: IV (IV: >100-1000)

Ask: I am curious: what Selectivity (6 v 8) value has been reported for O=C(NO)c1cc(F)c2c(c1)CCN(CC1C3CNCC1C3)C2 (centres unmarked) [Compound 493] ?
Reply: IV (IV: >100-1000)

Ask: So what's the measured Selectivity (6 v 8) for this one? O=C(NO)c1cc(F)c2c(c1)CCN(C1CCC3(CCN(C4CC4)CC3)C1)C2 (centres unmarked) [Compound 418]
Reply: IV (IV: >100-1000)

---

- TESTED_ON: Full length Human HDAC6 (Homo sapiens, UniProt Q9UBN7)
- Construct: Full length Human HDAC6; FLAG (C); host or cells: baculovirus expression system
- Sequence (Q9UBN7 1-1215): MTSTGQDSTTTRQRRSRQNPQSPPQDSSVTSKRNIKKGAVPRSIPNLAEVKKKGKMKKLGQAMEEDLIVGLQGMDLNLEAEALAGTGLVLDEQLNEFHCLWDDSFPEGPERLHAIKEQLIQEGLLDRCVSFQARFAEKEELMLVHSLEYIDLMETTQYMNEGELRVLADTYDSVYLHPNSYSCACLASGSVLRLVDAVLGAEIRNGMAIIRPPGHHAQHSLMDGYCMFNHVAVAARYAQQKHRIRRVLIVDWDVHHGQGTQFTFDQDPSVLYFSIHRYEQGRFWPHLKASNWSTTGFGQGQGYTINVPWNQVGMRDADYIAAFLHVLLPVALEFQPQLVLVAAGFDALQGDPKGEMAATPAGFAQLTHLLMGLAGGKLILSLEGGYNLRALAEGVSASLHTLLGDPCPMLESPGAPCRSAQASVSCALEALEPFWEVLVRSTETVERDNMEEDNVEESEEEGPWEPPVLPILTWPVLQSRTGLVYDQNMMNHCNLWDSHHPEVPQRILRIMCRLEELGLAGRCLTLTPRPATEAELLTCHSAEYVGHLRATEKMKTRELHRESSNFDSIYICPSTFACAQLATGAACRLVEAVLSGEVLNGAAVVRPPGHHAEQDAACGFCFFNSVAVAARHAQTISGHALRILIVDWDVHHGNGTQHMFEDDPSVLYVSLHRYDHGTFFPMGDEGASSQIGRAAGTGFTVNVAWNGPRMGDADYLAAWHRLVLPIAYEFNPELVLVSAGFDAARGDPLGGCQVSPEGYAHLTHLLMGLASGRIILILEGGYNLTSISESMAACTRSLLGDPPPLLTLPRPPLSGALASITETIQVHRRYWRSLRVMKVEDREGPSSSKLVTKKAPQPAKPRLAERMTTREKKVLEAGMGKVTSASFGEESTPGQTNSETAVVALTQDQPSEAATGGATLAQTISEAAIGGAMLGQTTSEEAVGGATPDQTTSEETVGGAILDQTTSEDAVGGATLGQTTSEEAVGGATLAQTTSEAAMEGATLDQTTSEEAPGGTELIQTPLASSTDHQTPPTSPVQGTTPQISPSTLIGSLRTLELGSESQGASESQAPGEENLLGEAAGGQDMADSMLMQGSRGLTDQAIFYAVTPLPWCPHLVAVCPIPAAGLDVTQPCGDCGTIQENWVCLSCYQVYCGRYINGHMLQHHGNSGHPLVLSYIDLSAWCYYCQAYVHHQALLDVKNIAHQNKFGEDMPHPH
- PROCEDURE_SUMMARY: Caliper endpoint assay for HDAC enzymatic activity (HDAC6)
- Type: biochemical
- MEASUREMENT_CONDITIONS: ratio of HDAC8 IC50/HDAC6 IC50
ENDPOINT_LABEL: Selectivity (6 v 8)

Example entries begin here.
1) O=C(NO)c1cc(F)c2c(c1)CCN(CC1CC3CCC(C1)N3C1CC1)C2 (stereo not drawn)
IV (IV: >100-1000)
2) O=C(NO)c1cc(F)c2c(c1)CCN([C@@H]1CCN(C3CC3)C3(CCC3)C1)C2 (single isomer, unassigned)
IV (IV: >100-1000)
3) CC[C@@H]1Cc2c(F)cc(C(=O)NO)cc2CN1C1CC2(CCN(C3CC3)CC2)C1 (single isomer, unassigned)
IV (IV: >100-1000)
4) O=C(NO)c1cc(F)c2c(c1)CCN(C1CCC13CCNCC3)C2 (stereo not drawn)
IV (IV: >100-1000)
5) CN1CCC[C@]2(C1)C[C@H](N1CCc3cc(C(=O)NO)cc(F)c3C1)C2 (single isomer, unassigned)
IV (IV: >100-1000)

Continue with the compound presented below.
Ask: Look up Selectivity (6 v 8) for this compound: O=C(NO)c1cc(F)c2c(c1)CCN([C@H]1C[C@@]3(CCCN(C4CC4)C3)C1)C2 (single isomer, unassigned)
Reply: IV (IV: >100-1000)

---

- TESTED_ON: Full length Human HDAC8 (Homo sapiens)
- Construct: Full length Human HDAC8; HIS (N); host or cells: baculovirus expression system
- Sequence (Q9BY41 whole entry): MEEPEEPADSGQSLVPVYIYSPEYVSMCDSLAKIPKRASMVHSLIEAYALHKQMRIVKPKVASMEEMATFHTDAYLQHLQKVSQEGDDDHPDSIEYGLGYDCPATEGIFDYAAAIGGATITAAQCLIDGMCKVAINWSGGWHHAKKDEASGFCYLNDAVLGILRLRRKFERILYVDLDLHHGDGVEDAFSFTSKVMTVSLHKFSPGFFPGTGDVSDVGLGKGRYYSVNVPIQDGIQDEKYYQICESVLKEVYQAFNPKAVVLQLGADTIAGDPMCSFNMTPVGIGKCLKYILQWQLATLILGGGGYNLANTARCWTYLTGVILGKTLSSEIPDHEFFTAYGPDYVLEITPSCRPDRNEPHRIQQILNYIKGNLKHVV
- PROCEDURE_SUMMARY: Caliper endpoint assay for HDAC enzymatic activity (HDAC8)
- Assay type: biochemical
- MEASUREMENT_CONDITIONS: in vitro enzymatic, 30 min pre-incubation, 1 μM substrate peptide
ENDPOINT_LABEL: IC50

Previously resolved entries follow.
1) CC(=O)N1CC2(C[C@H](N3CCc4cc(C(=O)NO)cc(F)c4C3)CCO2)C1 (single isomer, unassigned)
10 to 100 µM
2) O=C(NO)c1cc(F)c2c(c1)CCN(C1CCC3(CC1)COC3)C2
10 to 100 µM
3) O=C(NO)c1cc(F)c2c(c1)CCN1CCC[C@@H]21
1 to 10 µM

Now take the following compound into account.
Ask: // returns reported IC50 for input O=C(NO)c1cc(F)c2c(c1)CCN(C1CCC13COC3)C2 (stereo not shown)
Reply: 1 to 10 µM

The origin of these recorded values is patent US12655106B2.
